Reference source for all entries: ChEMBL document CHEMBL4043067

Kindly supply the reported IC50 values for the records listed here.
- Tested on: A549
- METHOD: Antiproliferative activity against human A549 cells after 48 hrs by CellTiter-Glo luminescent cell viability assay
- Format: functional, cell-based
- MEASUREMENT_SETUP: A549, 48 h
Give bare numbers, in µM.

These solved cases illustrate the format of a correct answer.
Please provide the recorded IC50 for O=C1C=CC[C@@H](/C=C/c2ccccc2)O1 , tested on A549.
70.3

Please provide the recorded IC50 for O=C1C=CC[C@@H]([C@H]2C[C@@H]2c2ccccc2)O1 , tested on A549.
15.2

Please provide the recorded IC50 for O=C1C=CC[C@H]([C@@H]2C[C@H]2c2ccccc2)O1 , tested on A549.
62.8

Please provide the recorded IC50 for O=C1C=CC[C@H](/C=C/c2ccc(F)cc2)O1 , tested on A549.
10.2

Please provide the recorded IC50 for O=C1C=CC[C@H](/C=C/c2ccc([N+](=O)[O-])cc2)O1 , tested on A549.
15.4

# ---- query compound ----
Please provide the recorded IC50 for O=C1C=CC[C@H]([C@H]2C[C@@H]2c2ccccc2)O1 , tested on A549.
11.6
